Data credit: patent US11912693B2

test system: paclitaxel induced peripheral neuropathy; assay: Reversal of allodynia induced by paclitaxel in mice (s.c. or p.o., von Frey frequency method); type: in vivo, c57bl/6 mice; conditions: Mus musculus, sc, 0.5 h, 1 mg/kg s.c., tested 30 min after dosing, read-out: Screen @ 1 mg/kg sc (% MPE)
readout: inhibition in vivo at 1 mg/kg

> print(dat)
                             moleculesmiles                        readout  assayresult
1  CCC1(CC)CC(=O)c2cc(-c3nc(-c4ccc(NS(C)(=O)=O)cc4)no3)ccc2O1  inhibition in vivo at 1 mg/kg        > 50%
2  COc1ccc(-c2noc(-c3ccc4c(c3)nnn4CC(C)(C)O)n2)c(C)c1  inhibition in vivo at 1 mg/kg        < 50%

Which inhibition in vivo at 1 mg/kg value belongs to CCC1(CC)CC(=O)c2cc(-c3nc(-c4ccncc4OC)no3)ccc2O1 ? > 50%

* * *

molecular target: human sphingosine-1-phosphate receptor 1 (S1P1) (Homo sapiens (Human)); assay: Inhibition of cAMP production (HTRF cAMP HiRange), S1P1 CHO-K1 cells; format: cell-based; conditions: inhibition of cAMP production, S1P1 CHO-K1 cells
Sequence (P21453 whole entry, looked up): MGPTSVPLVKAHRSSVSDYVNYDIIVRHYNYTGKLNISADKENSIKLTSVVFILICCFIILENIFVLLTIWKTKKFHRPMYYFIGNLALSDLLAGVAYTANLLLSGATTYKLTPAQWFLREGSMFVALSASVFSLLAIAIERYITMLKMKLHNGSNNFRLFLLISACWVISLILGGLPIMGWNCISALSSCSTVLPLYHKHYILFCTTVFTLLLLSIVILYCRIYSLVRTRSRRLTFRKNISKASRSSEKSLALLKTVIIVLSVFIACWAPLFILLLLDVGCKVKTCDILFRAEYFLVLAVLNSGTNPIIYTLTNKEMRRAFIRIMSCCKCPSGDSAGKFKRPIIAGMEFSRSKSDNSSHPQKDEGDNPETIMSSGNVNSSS
readout: hS1P1 cAMP pEC50

> print(dat)
                                   compound           readout  assayresult
1  CC(C)n1nnc2cc(-c3nc(Cc4ccccc4)no3)ccc21 [Compound 88]  hS1P1 cAMP pEC50         <6.5
2  CCC1(CC)CC(=O)c2cc(-c3nc(-c4cnc[nH]4)no3)ccc2O1 [Compound 466]  hS1P1 cAMP pEC50         <6.5
3  CC(C)n1ccc2cc(-c3nc(-c4ccccc4F)cs3)ccc21 [Compound 403]  hS1P1 cAMP pEC50         <6.5

Which hS1P1 cAMP pEC50 value belongs to Cc1ccccc1-c1noc(-c2ccc3c(c2)nnn3CC(F)F)n1 [Compound 182] ? >6.5

Which hS1P1 cAMP pEC50 value belongs to c1ccc(-c2noc(-c3ccc4c(c3)nnn4C3CCCCC3)n2)cc1 [Compound 292] ? <6.5

* * *

target: human sphingosine-1-phosphate receptor 1 (S1P1) (Homo sapiens (Human)); assay: Inhibition of cAMP production (HTRF cAMP HiRange), S1P1 CHO-K1 cells; type: cell-based; details: inhibition of cAMP production, S1P1 CHO-K1 cells
Each item that follows carries a reported hS1P1 cAMP pEC50.

Past entries and their recorded results:
> print(dat)
                             moleculesmiles  assayresult
1  COc1ccncc1-c1nc(-c2ccc3c(c2)nnn3C(C)C)no1         >6.5
2  O=C1CC(CO)(CO)Oc2ccc(-c3nc(-c4ccncc4)no3)cc21         <6.5

Which hS1P1 cAMP pEC50 value belongs to CC1(C)CCC2(CC1)CC(=O)c1cc(-c3nc(-c4cccnc4)no3)ccc1O2 ? <6.5

Which hS1P1 cAMP pEC50 value belongs to CC(C)(CO)Cn1nnc2cc(-c3noc(-c4ccccc4Cl)n3)ccc21 ? <6.5

* * *

target: human sphingosine-1-phosphate receptor 1 (S1P1) (Homo sapiens (Human), UniProt P21453); experiment: Inhibition of cAMP production (HTRF cAMP HiRange), S1P1 CHO-K1 cells; assay type: cell-based; details: inhibition of cAMP production, S1P1 CHO-K1 cells
readout: hS1P1 cAMP pEC50

> print(dat)
                                   compound           readout  assayresult
1  CCC1(CC)CC(=O)c2cc(-c3nsc(-c4cccnc4)n3)ccc2O1  hS1P1 cAMP pEC50         >6.5
2  N#Cc1cc(-c2nc(-c3ccc4c(c3)CCC(=O)N4)no2)ccc1NCC(F)F  hS1P1 cAMP pEC50         >6.5
3  CC(C)(O)Cn1nnc2cc(-c3nc(-c4ccncc4C(F)(F)F)no3)ccc21  hS1P1 cAMP pEC50         <6.5
4  N#Cc1cc(-c2nnc(-c3ccc4[nH]cnc4c3)o2)ccc1NCCF  hS1P1 cAMP pEC50         >6.5
5  CCC1(CC)CC(=O)c2cc(-c3nc(-c4cccnc4F)no3)ccc2O1  hS1P1 cAMP pEC50         >6.5

Which hS1P1 cAMP pEC50 value belongs to COc1ccccc1-c1nnc(-c2ccc3c(c2)oc(=O)n3C)o1 [Compound 350] ? <6.5

Which hS1P1 cAMP pEC50 value belongs to Brc1ccccc1-c1nc(-c2ccc3c(c2)nnn3Cc2ccccc2)no1 ? <6.5

Which hS1P1 cAMP pEC50 value belongs to CCC1CC(=O)c2ccc(-c3nc(-c4cccnc4)no3)cc2O1 (stereo not shown) ? <6.5

Which hS1P1 cAMP pEC50 value belongs to CCC1(CC)CC(=O)c2cc(-c3nc(-c4cncc(NS(C)(=O)=O)c4)no3)ccc2O1 ? >6.5

* * *

target: human sphingosine-1-phosphate receptor 1 (S1P1) (Homo sapiens (Human), UniProt P21453); test: Inhibition of cAMP production (HTRF cAMP HiRange), S1P1 CHO-K1 cells; format: cell-based; conditions: inhibition of cAMP production, S1P1 CHO-K1 cells
Each item that follows carries a reported hS1P1 cAMP pEC50.

Past entries and their recorded results:
> print(dat)
                             moleculesmiles           readout  assayresult
1  CC(C)n1nnc2cc(-c3nc4c(o3)-c3ccccc3CC4)ccc21  hS1P1 cAMP pEC50         <6.5
2  COc1ncccc1-c1nc(-c2ccc3c(c2)nnn3C(C)C)no1  hS1P1 cAMP pEC50         >6.5
3  Cc1ccccc1-c1nsc(-c2ccc3c(ccn3C(C)C)c2)n1  hS1P1 cAMP pEC50         <6.5
4  COc1cccc(F)c1-c1noc(-c2ccc3c(c2)nnn3C(C)C)n1  hS1P1 cAMP pEC50         <6.5
5   O=C1CNc2ccc(-c3nc(-c4cn[nH]c4)no3)cc2N1  hS1P1 cAMP pEC50         <6.5

Next item in the queue.
Which hS1P1 cAMP pEC50 value belongs to Cc1ccc(-c2noc(-c3ccc4c(c3)nnn4C(C)C)n2)cn1 ? <6.5

* * *

molecular target: human sphingosine-1-phosphate receptor 1 (S1P1) (Homo sapiens (Human)); assay: Inhibition of cAMP production (HTRF cAMP HiRange), S1P1 CHO-K1 cells; type: cell-based; conditions: CHO-K1; efficacy (SPAN) normalized to fingolimod; read-out: hS1P1 cAMP SPAN
Each item that follows carries a reported Emax.

Past entries and their recorded results:
> print(dat)
                                   compound                             targetofassay  assayresult
1  N#Cc1cc(-c2nc(-c3ccc4c(c3)CCC(=O)N4)no2)ccc1NCC(F)F [Compound 344]  human sphingosine-1-phosphate receptor 1 (S1P1) (Homo sapiens (Human))        > 75%
2  CCC1(CC)CC(=O)c2cc(-c3nc(-c4ccc(C(=O)NC)cc4)no3)ccc2O1 [Compound 185]  human sphingosine-1-phosphate receptor 1 (S1P1) (Homo sapiens (Human))        > 75%

Which Emax value belongs to CCC1(CC)CC(=O)c2cc(-c3nc(-c4ccncc4)no3)ccc2O1 [Compound 27] ? > 75%

Which Emax value belongs to N#Cc1cc(-c2nnc(-c3ccc4[nH]cnc4c3)o2)ccc1NCC(F)F [Compound 359] ? > 75%

Which Emax value belongs to CC(C)Nc1ccc(-c2ccc(-c3ccc4c(c3)nnn4C(C)C)cc2)cc1C#N [Compound 507] ? < 75%

* * *

Each item that follows carries a reported hS1P1 B-arrestin2 pEC50.
target: UniProt:P21453; test: β-Arrestin2 recruitment assay (PathHunter), S1P1 CHO-K1 cells; type: cell-based; conditions: β-arrestin2 recruitment, S1P1 CHO-K1 cells
Sequence (P21453 whole entry, looked up): as above
Sequence (P32121 whole entry partner, looked up): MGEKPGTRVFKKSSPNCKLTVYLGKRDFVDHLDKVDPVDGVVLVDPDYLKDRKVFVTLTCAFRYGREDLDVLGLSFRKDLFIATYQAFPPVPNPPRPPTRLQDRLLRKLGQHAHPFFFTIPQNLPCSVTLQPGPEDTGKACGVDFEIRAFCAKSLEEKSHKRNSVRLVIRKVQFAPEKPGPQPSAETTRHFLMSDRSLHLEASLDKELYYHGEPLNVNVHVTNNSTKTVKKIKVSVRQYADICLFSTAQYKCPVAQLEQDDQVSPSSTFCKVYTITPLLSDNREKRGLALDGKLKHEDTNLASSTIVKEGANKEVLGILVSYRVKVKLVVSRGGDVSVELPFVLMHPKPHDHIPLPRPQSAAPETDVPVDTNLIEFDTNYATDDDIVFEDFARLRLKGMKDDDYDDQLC

Past entries and their recorded results:
> print(dat)
                             moleculesmiles   targetofassay  assayresult
1  Brc1ccccc1-c1nc(-c2ccc3c(c2)nnn3Cc2ccccc2)no1  UniProt:P21453           <5
2  CCC1(CC)CC(=O)c2cc(-c3nc(-c4ccc(Cl)cc4)no3)ccc2O1  UniProt:P21453           <5
3  COc1ccccc1-c1noc(-c2ccc3c(ccn3C(C)C)c2)n1  UniProt:P21453           >5
4  CC(C)Nc1ccc(-c2nc(-c3ccc4c(c3)CCC(=O)N4)no2)cc1C#N  UniProt:P21453           >5

Which hS1P1 B-arrestin2 pEC50 value belongs to CC(C)n1ccc2cc(-c3noc(-c4ccccc4F)n3)ccc21 ? >5

Which hS1P1 B-arrestin2 pEC50 value belongs to CCC1(CC)CC(=O)c2cc(-c3nc(-c4ccc5[nH]c(=O)[nH]c5c4)no3)ccc2O1 ? >5

Which hS1P1 B-arrestin2 pEC50 value belongs to Cc1ccsc1-c1nc(-c2ccc3c(c2)nnn3CC(C)(C)CO)no1 ? >5

Which hS1P1 B-arrestin2 pEC50 value belongs to CC(C)n1nnc2cc(-c3nc(-c4ccccc4C(F)(F)F)co3)ccc21 ? >5

Which hS1P1 B-arrestin2 pEC50 value belongs to CCC1(CC)CC(=O)c2cc(-c3nc(-c4ccc5cnccc5c4)no3)ccc2O1 ? <5

Which hS1P1 B-arrestin2 pEC50 value belongs to COc1ccc(-c2nc(-c3ccc4c(c3)nnn4CC(C)(C)CO)no2)c(C)c1 ? <5

Which hS1P1 B-arrestin2 pEC50 value belongs to CCC1(CC)CC(=O)c2cc(-c3nc(-c4cccnc4)no3)ccc2O1 ? >5
